test system: Streptococcus pneumoniae; assay: Antibacterial activity against Streptococcus pneumoniae ATCC 49619 after 20 to 22 hrs by broth microdilution method; assay type: functional
# MIC listing for each entry below
recorded.endpoint: MIC

smiles.repr	measurement
O=c1c2c(O)cccc2oc2cc(O)cc(O)c12	128 µg/mL
CC(=O)Oc1cc(OC(C)=O)c2c(=O)c3cc(OC(C)=O)ccc3oc2c1	> 128 µg/mL
CC(=O)Oc1cc(OC(C)=O)c2c(=O)c3cccc(OC(C)=O)c3oc2c1	> 128 µg/mL
CC(=O)Oc1cc(OC(C)=O)c2c(=O)c3ccccc3sc2c1	> 128 µg/mL
CC[C@H]1OC(=O)[C@H](C)[C@@H](O[C@H]2C[C@@](C)(OC)[C@@H](O)[C@H](C)O2)[C@H](C)[C@@H](O[C@@H]2O[C@H](C)C[C@H](N(C)C)[C@H]2O)[C@](C)(O)C[C@@H](C)CN(C)[C@H](C)[C@@H](O)[C@]1(C)O	< 0.125 µg/mL
O=c1c2ccccc2sc2cc(O)cc(O)c12	> 128 µg/mL
CC(=O)Oc1cc(OC(C)=O)c2c(=O)c3c(OC(C)=O)cccc3oc2c1	> 128 µg/mL
O=c1c2cccc(O)c2oc2cc(O)cc(O)c12	> 128 µg/mL
O=c1c2cc(O)ccc2oc2cc(O)cc(O)c12	> 128 µg/mL

====

Catalogue of molecules with associated MIC
tested on: Haemophilus influenzae; assay: Antibacterial activity against Haemophilus influenzae ATCC 49247 after 20 to 22 hrs by broth microdilution method; format: functional

molecule	tested.on	limit.qualifier	MIC, µg/mL
O=c1c2cccc(O)c2oc2cc(O)cc(O)c12	Haemophilus influenzae	>	128
O=c1c2ccc(O)cc2oc2cccc(O)c12	Haemophilus influenzae	>	128
CC(=O)Oc1ccc2c(=O)c3c(OC(C)=O)cccc3oc2c1	Haemophilus influenzae	=	128
CC(=O)Oc1cc(OC(C)=O)c2c(=O)c3cc(OC(C)=O)ccc3oc2c1	Haemophilus influenzae	>	128
O=c1c2cc(O)ccc2oc2cc(O)cc(O)c12	Haemophilus influenzae	>	128
O=c1c2ccccc2oc2cc(O)cc(O)c12	Haemophilus influenzae	=	64
CC[C@H]1OC(=O)[C@H](C)[C@@H](O[C@H]2C[C@@](C)(OC)[C@@H](O)[C@H](C)O2)[C@H](C)[C@@H](O[C@@H]2O[C@H](C)C[C@H](N(C)C)[C@H]2O)[C@](C)(O)C[C@@H](C)CN(C)[C@H](C)[C@@H](O)[C@]1(C)O [AZITHROMYCIN]	Haemophilus influenzae	=	1
O=c1c2ccccc2sc2cc(O)cc(O)c12	Haemophilus influenzae	=	16
CC(=O)Oc1cc(OC(C)=O)c2c(=O)c3ccccc3sc2c1	Haemophilus influenzae	>	128
CC(=O)Oc1cc(OC(C)=O)c2c(=O)c3cccc(OC(C)=O)c3oc2c1	Haemophilus influenzae	>	128
O=c1c2c(O)cccc2oc2cc(O)cc(O)c12	Haemophilus influenzae	=	16

====

Below, each entry is listed with its recorded MIC.
system: Haemophilus influenzae; assay: Antibacterial activity against Haemophilus influenzae ATCC 49247 after 20 to 22 hrs by broth microdilution method; assay type: functional

smiles.repr	MIC
O=c1c2ccc(O)cc2oc2cc(O)cc(O)c12	32 µg/mL
CC(=O)Oc1cccc2oc3ccccc3c(=O)c12	> 128 µg/mL
O=c1c2ccccc2oc2cccc(O)c12	> 128 µg/mL
CC(=O)Oc1cc(OC(C)=O)c2c(=O)c3ccccc3oc2c1	128 µg/mL
CC(=O)Oc1ccc2c(=O)c3c(OC(C)=O)cc(OC(C)=O)cc3oc2c1	128 µg/mL
CC(=O)Oc1cc(OC(C)=O)c2c(=O)c3c(OC(C)=O)cccc3oc2c1	> 128 µg/mL

====

system: Streptococcus pyogenes; test: Antibacterial activity against Streptococcus pyogenes ATCC 700294 after 20 to 22 hrs by broth microdilution method; assay type: functional; conditions: M1 GAS

smiles.repr	MIC
O=c1c2ccc(O)cc2oc2cc(O)cc(O)c12	> 128 µg/mL
CC(=O)Oc1cccc2oc3ccccc3c(=O)c12	> 128 µg/mL
CC(=O)Oc1cc(OC(C)=O)c2c(=O)c3cc(OC(C)=O)ccc3oc2c1	> 128 µg/mL
O=c1c2ccc(O)cc2oc2cccc(O)c12	> 128 µg/mL
CC(=O)Oc1cc(OC(C)=O)c2c(=O)c3ccccc3sc2c1	> 128 µg/mL
O=c1c2cccc(O)c2oc2cc(O)cc(O)c12	> 128 µg/mL
CC[C@H]1OC(=O)[C@H](C)[C@@H](O[C@H]2C[C@@](C)(OC)[C@@H](O)[C@H](C)O2)[C@H](C)[C@@H](O[C@@H]2O[C@H](C)C[C@H](N(C)C)[C@H]2O)[C@](C)(O)C[C@@H](C)CN(C)[C@H](C)[C@@H](O)[C@]1(C)O	< 0.125 µg/mL
CC(=O)Oc1cc(OC(C)=O)c2c(=O)c3cccc(OC(C)=O)c3oc2c1	> 128 µg/mL
CC(=O)Oc1cc(OC(C)=O)c2c(=O)c3c(OC(C)=O)cccc3oc2c1	> 128 µg/mL
O=c1c2cc(O)ccc2oc2cc(O)cc(O)c12	> 128 µg/mL
O=c1c2ccccc2sc2cc(O)cc(O)c12	> 128 µg/mL
CC(=O)Oc1cc(OC(C)=O)c2c(=O)c3ccccc3oc2c1	> 128 µg/mL
CC(=O)Oc1ccc2c(=O)c3c(OC(C)=O)cccc3oc2c1	> 128 µg/mL
O=c1c2ccccc2oc2cccc(O)c12	> 128 µg/mL
O=c1c2c(O)cccc2oc2cc(O)cc(O)c12	> 128 µg/mL
O=c1c2ccccc2oc2cc(O)cc(O)c12	> 128 µg/mL
CC(=O)Oc1ccc2c(=O)c3c(OC(C)=O)cc(OC(C)=O)cc3oc2c1	> 128 µg/mL
